Test system: SN12C renal
procedure.text: NCI tumour cell line growth inhibition, 48 h
Note to self: values exactly at 20 µM are True. So TGI at or above 20 µM is True, below is False.

Worked examples follow.
{"compound": "COc1cc(C2CC(c3cc(C)ccc3C)=NN2c2ccc(S(=O)(=O)NC(=O)NCc3ccccc3)cc2)cc(OC)c1OC (centres undefined)", "test.target": "SN12C renal", "label.class": "False"}
{"compound": "CC(=O)OCC12C(OC(C)=O)C[C@@H](C)C3(CC(c4ccoc4)OC3=O)C1CCC(O)C21CO1 (some centres undefined)", "test.target": "SN12C renal", "label.class": "True"}
{"compound": "Cc1nc2ccccc2c(=O)n1NC(=O)c1ccccc1O", "test.target": "SN12C renal", "label.class": "True"}
{"compound": "O=C(CCc1ccc(O)c(O)c1)NCCc1cc(OCc2ccccc2)cc(OCc2ccccc2)c1", "test.target": "SN12C renal", "label.class": "True"}
{"compound": "O=C1c2nn(-c3ccccc3)nc2C(c2ccccc2)N1c1ccccc1 (centres undefined)", "test.target": "SN12C renal", "label.class": "True"}
{"compound": "CCN(CC)CCNC(=O)c1cccc2cc3ccccc3nc12", "test.target": "SN12C renal", "label.class": "True"}
{"compound": "CCOC(=O)C(=O)N=Nc1nc2c(O)c3ccccc3c(O)c2s1", "test.target": "SN12C renal", "label.class": "False"}
{"compound": "CCCCN(CCCC)CCCCNc1c(C)cnc2cc(Cl)ccc12", "test.target": "SN12C renal", "label.class": "True"}

Lookup: Does the reported TGI for CC(=O)OC[C@]12CC[C@@H]([C@@H](C)C(N)=O)[C@@H]1[C@H]1CC[C@@H]3[C@@]4(C)CC[C@H](OC(C)=O)C(C)(C)[C@@H]4CC[C@@]3(C)[C@]1(C)CC2 fall at or above the 20 µM mark?
Found: False

Lookup: Same read-out for CC(=O)NCCc1c[nH]c2ccc(Cl)cc12 ?
Found: True
